Test system: P-glycoprotein (Pgp, MDR1)
Assay: MDCKII-MDR1 permeability and Pgp efflux
Assay type: in vitro ADME
Conditions: dog, MDCK-MDR1
ENDPOINT: Papp B→A (×10⁻⁶ cm/s)
State just the number; it will be interpreted in ×10⁻⁶ cm/s.

Entry COCCc1ccc(OCC(O)CNC(C)C)cc1 (stereo not shown) : reported Papp B→A = ?
28

---

System: P-glycoprotein (Pgp, MDR1)
Assay: MDCKII-MDR1 permeability and Pgp efflux
Type: in vitro ADME
Settings: dog, MDCK-MDR1
ENDPOINT: efflux ratio
Give a plain numeric answer without units written out.

Any idea what efflux ratio was measured for COCCc1ccc(OCC(O)CNC(C)C)cc1 (stereo not shown) [metoprolol] ?
0.98

---

Test system: P-glycoprotein (Pgp, MDR1)
Experiment: MDCKII-MDR1 permeability and Pgp efflux
Assay type: in vitro ADME
Details: dog, MDCK-MDR1
ENDPOINT: Papp A→B (×10⁻⁶ cm/s)
Give the quantity in ×10⁻⁶ cm/s, number only.

Entry under review: COCCc1ccc(OCC(O)CNC(C)C)cc1 (stereo not shown) . Reported Papp A→B?
28.6

---

System: P-glycoprotein (Pgp, MDR1)
Assay: MDCKII-MDR1 permeability and Pgp efflux
Type: in vitro ADME
Conditions: dog, MDCK-MDR1, recovery (%) B-A, MDCKII-MDR1, B-A
ENDPOINT: recovery (%)
Enter your answer as a number in %; do not include the unit.

Look at this compound and give its reported recovery. COCCc1ccc(OCC(O)CNC(C)C)cc1 (stereo not shown) [metoprolol]
97.4

---

Tested on: P-glycoprotein (Pgp, MDR1)
Test: MDCKII-MDR1 permeability and Pgp efflux
Type: in vitro ADME
Conditions: dog, MDCK-MDR1, recovery (%) A-B, MDCKII-MDR1, A-B
ENDPOINT: recovery (%)
Only the number, expressed in %, is required.

Find the recorded recovery belonging to COCCc1ccc(OCC(O)CNC(C)C)cc1 (stereo not shown) and report it.
109
